src = paper PMC5700166

testSystem: GST-Ap-NF-kB RHD (Exaiptasia pallida (Aiptasia), UniProt A0A913YAJ5 2-422)
Sequence: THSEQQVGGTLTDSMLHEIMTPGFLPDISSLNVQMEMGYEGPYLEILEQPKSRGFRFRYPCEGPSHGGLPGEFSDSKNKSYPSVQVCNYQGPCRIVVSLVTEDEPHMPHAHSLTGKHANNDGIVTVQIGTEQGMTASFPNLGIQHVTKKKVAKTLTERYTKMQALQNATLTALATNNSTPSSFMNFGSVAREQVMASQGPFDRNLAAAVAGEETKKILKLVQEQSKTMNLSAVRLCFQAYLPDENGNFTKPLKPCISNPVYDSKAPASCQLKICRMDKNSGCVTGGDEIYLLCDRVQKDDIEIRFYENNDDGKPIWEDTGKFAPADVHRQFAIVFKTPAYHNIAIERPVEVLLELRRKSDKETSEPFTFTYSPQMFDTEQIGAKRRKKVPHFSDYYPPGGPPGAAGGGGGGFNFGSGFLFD
protocolText: protein-binding microarray (PBM); PBM: ~300 nM protein, 6 mM HEPES pH 7.8, 80 mM KCl, 0.5 mM EDTA, 0.5 mM EGTA, 6% glycerol, 35 ng/ul poly-dIdC, 1% milk, 1 h, room temperature; Ap Aiptasia and Nv Nematostella (sea anemones) / Co Capsaspora / Aq Amphimedon (sponge) / Dm Drosophila / Hu human; RHD is the Rel homology domain; high values mean tight binding
conditionSet: dsDNA, one strand shown
Kindly state binding signal for each of the entries shown.
# output: numeric value plus its unit

Kindly note the recorded binding signal for `CCGATTAACATCAGGGGATTAGATGATGTTAATCGGGTCTTGATTCGCTTGACGCTGCTG` , which is 4.5 z-score

Kindly note the recorded binding signal for `CCGATTAACATCAGGGAAAACCCTGATGTTAATCGGGTCTTGATTCGCTTGACGCTGCTG` , which is 7.33 z-score

Kindly note the recorded binding signal for `CCGATTAACATCACGGGGCCCCCTGATGTTAATCGGGTCTTGATTCGCTTGACGCTGCTG` , which is 5.45 z-score

Kindly note the recorded binding signal for `CCGATTAACATCAAGAAACCCCCTGATGTTAATCGGGTCTTGATTCGCTTGACGCTGCTG` , which is 9.53 z-score

Kindly note the recorded binding signal for `CCGATTAACATCACGGGGAACTCTGATGTTAATCGGGTCTTGATTCGCTTGACGCTGCTG` , which is 6.71 z-score

Kindly note the recorded binding signal for `CCGATTAACATCAGAAATCCCACTGATGTTAATCGGGTCTTGATTCGCTTGACGCTGCTG` , which is 2.54 z-score

Kindly note the recorded binding signal for `CCGATTAACATCAGGGGGAAGGATGATGTTAATCGGGTCTTGATTCGCTTGACGCTGCTG` , which is 4.09 z-score

Kindly note the recorded binding signal for `CCGATTAACATCAGGTATTTTTATGATGTTAATCGGGTCTTGATTCGCTTGACGCTGCTG` , which is 1.27 z-score

Kindly note the recorded binding signal for `CCGATTAACATCAGAAACTCCCCTGATGTTAATCGGGTCTTGATTCGCTTGACGCTGCTG` , which is 8.69 z-score

Kindly note the recorded binding signal for `CCGATTAACATCACGGTGGGAAATGATGTTAATCGGGTCTTGATTCGCTTGACGCTGCTG` , which is 2.05 z-score

Kindly note the recorded binding signal for `CCGATTAACATCAAATTTCCCGATGATGTTAATCGGGTCTTGATTCGCTTGACGCTGCTG` , which is 3.04 z-score

Kindly note the recorded binding signal for `CCGATTAACATCAGGGGTTTCACTGATGTTAATCGGGTCTTGATTCGCTTGACGCTGCTG` , which is 3.56 z-score

Kindly note the recorded binding signal for `CCGATTAACATCAAGGAACCCCCTGATGTTAATCGGGTCTTGATTCGCTTGACGCTGCTG` , which is 8.43 z-score

Kindly note the recorded binding signal for `CCGATTAACATCAAATTCCCAGTTGATGTTAATCGGGTCTTGATTCGCTTGACGCTGCTG` , which is 1.52 z-score

Kindly note the recorded binding signal for `CCGATTAACATCAGACGTGGGAATGATGTTAATCGGGTCTTGATTCGCTTGACGCTGCTG` , which is 1.19 z-score

Kindly note the recorded binding signal for `CCGATTAACATCAGGGGGTCCACTGATGTTAATCGGGTCTTGATTCGCTTGACGCTGCTG` , which is 4.33 z-score

Kindly note the recorded binding signal for `CCGATTAACATCAATATTTCCCATGATGTTAATCGGGTCTTGATTCGCTTGACGCTGCTG` , which is 2.29 z-score

Kindly note the recorded binding signal for `CCGATTAACATCAGGGAAAATACTGATGTTAATCGGGTCTTGATTCGCTTGACGCTGCTG` , which is 3.76 z-score
